Molecular target: Recombinant human c-Cbl (aa 47-435) (Homo sapiens, UniProt P22681)
Sequence (P22681 47-435): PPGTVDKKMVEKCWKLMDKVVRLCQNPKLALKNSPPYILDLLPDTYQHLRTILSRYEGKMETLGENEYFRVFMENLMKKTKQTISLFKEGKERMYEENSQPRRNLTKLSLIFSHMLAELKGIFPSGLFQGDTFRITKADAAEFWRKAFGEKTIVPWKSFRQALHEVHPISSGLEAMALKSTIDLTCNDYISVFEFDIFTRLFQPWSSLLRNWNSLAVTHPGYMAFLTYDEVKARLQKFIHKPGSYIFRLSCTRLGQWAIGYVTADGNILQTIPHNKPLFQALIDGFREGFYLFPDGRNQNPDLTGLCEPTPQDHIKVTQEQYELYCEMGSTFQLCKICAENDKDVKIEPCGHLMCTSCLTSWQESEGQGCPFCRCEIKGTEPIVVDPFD
Experiment: c-Cbl Biochemical Assay (TR-FRET)
Settings: hc-Cbl Biochemical Assay (TR-FRET); read-out: TR-FRET hcCbl IC50
Measurement Kind: IC50

Structure	Result
COc1cc(CN(C)[C@@H]2CCC[C@@H]2O)cc2nc(-c3cccc(-c4ccc(F)cc4-c4nncn4C)c3)oc12	< 200 nM
Cn1cnnc1-c1cc(F)ccc1-c1cccc(-c2nc3cc(CN[C@@H]4CCC[C@@H]4O)cc(Br)c3o2)c1	< 200 nM
CC(C)CCNCc1cc(C(F)(F)F)c2oc(-c3cccc(-c4ccc(F)cc4-c4nncn4C)c3)nc2c1	< 200 nM
Cn1cnnc1-c1cc(F)ccc1-c1cccc(-c2nc3cc(CO)cc(C(F)(F)F)c3[nH]2)c1	1000 to 10000 nM
Cn1cnnc1-c1cc(F)ccc1-c1cccc(-c2nc3cc(CNCC(O)(C(F)(F)F)C(F)(F)F)cc(C(F)(F)F)c3o2)c1	< 200 nM
Cn1cnnc1-c1cc(F)ccc1-c1cccc(-c2nc3cc(CNC4CCC4)cc(C(F)(F)F)c3o2)c1	< 200 nM

----------
molecular target: Recombinant human Cbl-b (aa 36-427) (Homo sapiens); experiment: Cbl-b Biochemical Assay (TR-FRET); conditions: read-out: TR-FRET hCbl-b IC50
Sequence (Q13191 36-427): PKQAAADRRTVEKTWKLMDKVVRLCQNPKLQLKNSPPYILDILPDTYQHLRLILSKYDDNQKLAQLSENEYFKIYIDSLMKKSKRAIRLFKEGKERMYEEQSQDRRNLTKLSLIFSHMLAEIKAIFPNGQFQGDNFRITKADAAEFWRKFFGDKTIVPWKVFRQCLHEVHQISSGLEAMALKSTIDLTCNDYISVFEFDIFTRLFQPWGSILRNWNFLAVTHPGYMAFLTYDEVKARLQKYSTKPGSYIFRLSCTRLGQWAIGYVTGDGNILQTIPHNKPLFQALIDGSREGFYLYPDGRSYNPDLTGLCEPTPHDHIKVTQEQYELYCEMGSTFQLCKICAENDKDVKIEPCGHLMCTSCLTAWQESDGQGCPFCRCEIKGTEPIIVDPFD
Listing of entries alongside the reported IC50.
Measurement Kind: IC50

Structure	Measurement Kind	Result
Cn1cnnc1-c1cc(F)ccc1-c1cccc(-c2nc3cc(CN[C@@H]4COC[C@@H]4O)cc(C(F)(F)F)c3o2)c1	IC50	< 0.2 µM
Cn1cnnc1-c1cc(F)ccc1-c1cccc(-c2nc3cc(CN[C@@H]4CC[C@@H]4O)cc(C(F)(F)F)c3o2)c1	IC50	< 0.2 µM
Cn1cnnc1CCc1cccc(-c2nc3cccc(C(F)(F)F)n3n2)c1	IC50	10 to 50 µM
Cn1cnnc1-c1cc(F)ccc1-c1cc(-c2nc3cc(CN[C@@H]4CCC[C@@H]4O)ccc3o2)cc(C2CC2)c1	IC50	< 0.2 µM
Cn1cnnc1-c1cnn(C)c1-c1cccc(-c2nc3cccc(C(F)(F)F)n3n2)c1	IC50	10 to 50 µM
Cn1cnnc1-c1cc(C#N)ccc1-c1cccc(-c2nc3cc(CO)cc(C(F)(F)F)c3[nH]2)c1	IC50	1 to 10 µM
CC(=O)c1cc(C(F)(F)F)c2oc(-c3cccc(-c4ccc(F)cc4-c4nncn4C)c3)nc2c1	IC50	< 0.2 µM
Cn1cnnc1-c1cc(F)ccc1-c1cc(-c2nc3cc(CO)ccc3o2)nc(C2CC2)c1	IC50	1 to 10 µM
